Tested on: TO-3-N3-2 (biotin conjugate)
Test: pull-down binding Z-score (relative to library population); higher = stronger binding
Settings: RNA library: Library-2
Label class 1 for high-side pull-down binding Z-score (at or above -0.2) and class 0 for low-side pull-down binding Z-score (below it).

Qu. Check this sequence for pull-down binding Z-score at or above -0.2: GUUGAUUUUUGUGGAAAGGGCUAUCAUCUUAUGUCCUUCCCUCAGUCAGC [SHAPE_invitro_SARS-CoV-2_Motif_447]
Ans. class 0

---

Test system: TO-3-N3-2 (biotin conjugate)
Assay: pull-down binding Z-score (relative to library population); higher = stronger binding
Conditions: RNA library: Library-2
Value type: pull-down binding Z-score

Worked cases, pull-down binding Z-score given:
1) GGCCUUGAAGCC [SHAPE_invitro_SARS-CoV-2_Motif_466] ... -0.216
2) AAUGCAUAGAAAGCAUU [hsa-mir-4272] ... 0.00602
3) GAUUAUGUGUACCUUCCUUACCCAGAUCCAUCAAGAAUCCUAGGGGCCGGCUGUUUUGUAGAUGAUAUCGUAAAAACAGAUGGUACACUUAUGAUU [SHAPE_invitro_SARS-CoV-2_Multi_44_ComplexLevel_1] ... 0.262
4) CGGCGGCGGCGGCGGCGGCGGCGGCGGCGGCGGCGGCGGCGGCGGCGG [G4_r(CGG)16] ... 9.63

Qu. Fill blank: measured pull-down binding Z-score of the sequence GUCCUGCCCUCACUGGGAACCCCCUUCCCUCUGGGUACCAG [hsa-mir-1324] is ____.
Ans. 0.477

Qu. Using the record for UUUUCGCUUUAUAUGUGACGAAAC [hsa-mir-495] , report its pull-down binding Z-score.
Ans. 0.125

Qu. Give its pull-down binding Z-score value. Item: UUGGGGAGGAGCUAAGAAGCCCCUACAGGGCCCAG [hsa-mir-4257]
Ans. 0.24

Qu. Can you share its pull-down binding Z-score? I mean this sequence: "UACAAUUUGCCUAUGCCAACAGGAAUAGGUUUUUGUA"
Ans. -0.176

---

Measured pull-down binding Z-score accompanies every entry in the list below.
Tested on: TO-3-N3-2 (biotin conjugate)
Test: pull-down binding Z-score (relative to library population); higher = stronger binding
Conditions: RNA library: Library-2
Simply state the number, no unit and no words.

1) CCCAGCCUUCCAGAGUUGGUGCCAGG [hsa-mir-4476] ... 0.0973
2) CUGCGGCCCUGAUGUCUCUACUCCAG [hsa-mir-4691] ... 0.103

// below: pull-down binding Z-score requested for another sequence
Qu. Requested read-out pull-down binding Z-score, target or system TO-3-N3-2 (biotin conjugate), entry AUUGCACGUGUGUGAGGCGGGUGCAGU [hsa-mir-33b]
Ans. 0.102

---

// pull-down binding Z-score lookup, one value per entry
Tested on: TO-N3 (biotin conjugate)
Assay: pull-down binding Z-score (relative to library population); higher = stronger binding
Settings: RNA library: Library-2
Number only, please.

1) UGUAUGAAAAUGCCUUUUUACCUUUUGCUAUGGGUAUUAUUGCUAUGUCUGCUUUUGCAAUGAUGUUUGUCAAACAUAAGCAUGCA ... -0.547

Qu. What does the record list as pull-down binding Z-score for AUUCUGGACACCAG [hsa-mir-147b] ?
Ans. 0.311

Qu. Could you share which pull-down binding Z-score value was measured for "AACAAAUGUGUCAAUUUCAACUUCAAUGGUUUAACAGGCACAGGUGUU" ?
Ans. -0.754

Qu. Data request, read-out pull-down binding Z-score, for CUGUUCAGGAGGCUCUCAAUGUGUACA [hsa-mir-199a-1]
Ans. 0.947

Qu. Reported pull-down binding Z-score, sequence UUUUGUCUGA [hsa-mir-553] : ____
Ans. -0.549

Qu. State the recorded pull-down binding Z-score for this entry: CUAAUCUCUUAGCACUGAAGAUUAG [hsa-mir-4671]
Ans. -0.125

Qu. Field request: pull-down binding Z-score | item: "CUGUCACUAAG"
Ans. -0.36

Qu. May I ask what pull-down binding Z-score has been recorded for "UCUGCACUGUUAGCGGGUACAAUCACUUCUGGUUGGACCUUUGGUGCAGG" ?
Ans. -0.815
